Test: Tissue distribution of THP, DHC and protopine in rat tissues after gastric gavage administration (HPLC-UV, non-compartmental analysis)
Type: in vivo, Wistar male rats
Conditions: male, Wistar, po, 26.1 mg/kg, rat spleen, read-out: AUC0–24 h of DHC
reported_endpoint: AUC(0-t) (ng·h/mL)
Write the value in ng·h/mL as a bare number.

Give reported AUC(0-t) value for COc1cc2c(cc1OC)-c1c(C)c3ccc(OC)c(OC)c3c[n+]1CC2 [DHC, dehydrocorydaline] 830

* * *

Test: Tissue distribution of THP, DHC and protopine in rat tissues after gastric gavage administration (HPLC-UV, non-compartmental analysis)
Format: in vivo, Wistar male rats
Conditions: male, Wistar, po, 6.45 mg/kg, rat cerebellum, read-out: AUC0–24 h of THP
Experimental: The experimental protocol was approved by the University's Animal Ethics Committee. […] Rats had unlimited access to water. Standard food was given until 12 h before the experiments. Rhizoma Corydalis was processed according to Pharmacopoeia of Chinese Medicine and National Guideline of Traditional Chinese Medicinal Plants Processing. Briefly, fresh Rhizoma Corydalis was boiled in water till the pith turn light brown color. Cooked rhizome was sliced into pieces (4 mm, diameter) and dried at 25 °C. […]
reported_endpoint: AUC(0-t) (ng·h/mL)
Write the value in ng·h/mL as a bare number.

Give reported AUC(0-t) value for COc1cc2c(cc1OC)[C@@H]1Cc3ccc(OC)c(OC)c3CN1CC2 [THP, tetrahydropalmatine] 990
